Observed pIC50 values for Stromelysin-1 (Homo sapiens, UniProt P08254) are listed in what follows.
Field pIC50 (float): negative decimal logarithm of the concentration in molar.

Record excerpt, results attached:
* CC(C)C[C@H](N[C@H](CCN1C(=O)c2cc3ccccc3cc2C1=O)C(=O)O)C(=O)NCc1nnn(C)n1 | 5.53
* CNC(=O)[C@H](C)NC(=O)[C@H](CC(C)C)N[C@H](CCN1C(=O)c2cc3ccccc3cc2C1=O)C(=O)O | 5.25

// moving on: another record for pIC50
Item CNC(=O)[C@H](CC(C)C)NC(=O)[C@H](CC(C)C)N[C@H](CCN1C(=O)c2cc3ccccc3cc2C1=O)C(=O)O was tested on Stromelysin-1 (Homo sapiens, UniProt P08254); the reported pIC50 is 5.89
